- tested.system: BACE1 (Homo sapiens (Human), UniProt P56817)
- Sequence (P56817 46-501): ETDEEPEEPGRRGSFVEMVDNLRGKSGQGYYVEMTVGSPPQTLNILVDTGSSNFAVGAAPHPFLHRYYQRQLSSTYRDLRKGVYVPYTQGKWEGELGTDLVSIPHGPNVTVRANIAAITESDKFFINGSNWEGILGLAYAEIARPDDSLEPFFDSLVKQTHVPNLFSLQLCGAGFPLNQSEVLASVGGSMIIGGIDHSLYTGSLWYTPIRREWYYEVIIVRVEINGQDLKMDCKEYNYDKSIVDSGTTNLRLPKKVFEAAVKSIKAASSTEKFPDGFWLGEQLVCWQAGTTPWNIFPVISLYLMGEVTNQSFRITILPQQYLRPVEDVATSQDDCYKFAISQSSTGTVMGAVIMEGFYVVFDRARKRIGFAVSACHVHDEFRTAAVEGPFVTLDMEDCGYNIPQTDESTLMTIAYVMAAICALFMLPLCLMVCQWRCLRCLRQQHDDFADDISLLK
- procedure.details: In vitro enzymatic BACE1 FRET assay
- Assay type: biochemical
- assay.conditions: read-out: IC50 IP (μM) BACE1 Enzyme
property: IC50
# output: numeric value plus its unit

Recorded results for 10 compounds are shown here.
- compound: "C[C@]1(c2cc(/C=C(\\F)c3ccc(C#N)cn3)ccc2F)N=C(N)S[C@@]2(C(=O)N3CCNC(=O)CC3)C[C@H]21 [Example 142]"
  IC50: "0.00178 µM"
- compound: "C#Cc1cnc(/C(F)=C/c2ccc(F)c([C@@]3(C)N=C(N)S[C@@]4(C(=O)N(C)C)C[C@H]43)c2)cn1 [Example 205]"
  IC50: "0.002 µM"
- compound: "Cc1cnc([C@]23C[C@H]2[C@@](C)(c2cc(/C=C(\\F)c4ccc(C#N)cn4)ccc2F)N=C(N)S3)o1 [Example 344]"
  IC50: "0.0033 µM"
- compound: "CN(C)C(=O)[C@]12C[C@H]1[C@@](C)(c1cc(/C=C(\\F)c3cnc(OCC4CC4(F)F)cn3)ccc1F)N=C(N)S2 (stereo partly drawn) [Example 215]"
  IC50: "0.037 µM"
- compound: "C[C@]1(c2cc(/C=C(\\F)c3ccc(C#N)cn3)ccc2F)N=C(N)S[C@@]2(C(N)=O)C[C@H]21 [Example 243]"
  IC50: "0.003 µM"
- compound: "C[C@]1(c2cc(/C=C(\\F)c3ccc(C#N)cn3)cnc2F)N=C(N)S[C@@]2(C(=O)N3CC[C@@H](F)C3)C[C@H]21 [Example 181]"
  IC50: "0.0021 µM"
- compound: "CN(C)C(=O)[C@]12C[C@H]1[C@@](C)(c1cc(/C=C(\\F)c3cnc(C#N)cn3)cnc1F)N=C(N)S2 [Example 296]"
  IC50: "0.0119 µM"
- compound: "CNC(=O)[C@]12C[C@H]1[C@@](C)(c1cc(/C=C(\\F)c3cnc(OCc4cnco4)cn3)ccc1F)N=C(N)S2 [Example 226]"
  IC50: "0.126 µM"
- compound: "COC[C@]12C[C@H]1[C@@](CF)(c1cc(/C=C(/F)c3ccc(Cl)cn3)ccc1F)N=C(N)S2 [Example 101]"
  IC50: "0.303 µM"
- compound: "C#CCOc1cnc(/C(F)=C/c2cnc(F)c([C@@]3(C)N=C(N)S[C@@]4(C(=O)NCC(F)F)C[C@H]43)c2)cn1 [Example 300]"
  IC50: "0.0025 µM"

QUERY: Sample C[C@]1(c2cc(/C=C(\F)c3cnc(N4CCOC4=O)cn3)ccc2F)N=C(N)S[C@@]2(C(=O)N3CCOCC3)C[C@H]21 [Example 346] — what was its IC50?
RESULT: 1.4 µM

QUERY: Next: C[C@@H]1CN=C([C@]23C[C@H]2[C@@](C)(c2cc(/C=C(\F)c4ccc(C#N)cn4)ccc2F)N=C(N)S3)O1 [Example 343]
RESULT: 0.0826 µM

QUERY: Next: C[C@]1(c2cc(/C=C(\F)c3ccc(C#N)cn3)ccc2F)N=C(N)S[C@@]2(C(=O)N3CCCC(F)(F)C3)C[C@H]21 [Example 324]
RESULT: 0.0011 µM

QUERY: Next: COC[C@]12C[C@H]1[C@@](C)(c1cc(/C=C(\F)c3cnc(OCC(C)C)cn3)ccc1F)N=C(N)S2 [Example 274]
RESULT: 1.9 µM

QUERY: Next: CN(C)C(=O)[C@]12C[C@H]1[C@@](C)(c1cc(/C=C(\F)c3ccc(C#N)s3)ccc1F)N=C(N)S2 [Example 220]
RESULT: 0.011 µM

QUERY: Next: C#CCOc1cnc(/C(F)=C/c2cnc(F)c([C@@]3(C)N=C(N)S[C@@]4(C(=O)OC)C[C@H]43)c2)cn1 [Example 294]
RESULT: 0.0089 µM

---

- tested.system: BACE2 (Homo sapiens (Human))
- procedure.details: In vitro enzymatic BACE2 FRET assay
- Type: biochemical
- assay.conditions: read-out: IC50 IP (μM) BACE2 Enzyme
Lab note: anything with IC50 below 0.09 µM is marked class 1; values at 0.09 µM or higher are marked class 0.

- structure.smiles: "COC[C@H]1COCCN1C(=O)[C@]12C[C@H]1[C@@](C)(c1cc(/C=C(\\F)c3ccc(C#N)cn3)ccc1F)N=C(N)S2"
  assigned.class: "class 1"

QUERY: I'd appreciate it if you could check whether CNC(=O)[C@]12C[C@H]1[C@@](C)(c1cc(/C=C(\F)c3cnc(C#N)cn3)ccc1F)N=C(N)S2 has IC50 smaller than 0.09 µM.
RESULT: class 1

QUERY: Next: C[C@@H]1CCN1C(=O)[C@]12C[C@H]1[C@@](C)(c1cc(/C=C(\F)c3ccc(Cl)cn3)ccc1F)N=C(N)S2
RESULT: class 1

QUERY: Next: COC[C@@]12SC(N)=N[C@](C)(c3cc(/C=C(\F)c4ccc(C#N)cn4)ccc3F)[C@@H]1C2(F)F
RESULT: class 0

QUERY: Next: C[C@]1(c2cc(/C=C(\F)c3ccc(C#N)cn3)ccc2F)N=C(N)S[C@@]2(C(=O)N3CCNC(=O)CC3)C[C@H]21
RESULT: class 1

QUERY: Next: C[C@]1(c2cc(/C=C(\F)c3ccc(C#C[Si](C)(C)C)cn3)ccc2F)N=C(N)S[C@@]2(C(=O)N3CCOCC3)C[C@H]21
RESULT: class 0

---

This section presents compounds with their documented IC50 values.
- tested.system: BACE2 (Homo sapiens (Human), UniProt Q9Y5Z0)
- Sequence (Q9Y5Z0 63-518): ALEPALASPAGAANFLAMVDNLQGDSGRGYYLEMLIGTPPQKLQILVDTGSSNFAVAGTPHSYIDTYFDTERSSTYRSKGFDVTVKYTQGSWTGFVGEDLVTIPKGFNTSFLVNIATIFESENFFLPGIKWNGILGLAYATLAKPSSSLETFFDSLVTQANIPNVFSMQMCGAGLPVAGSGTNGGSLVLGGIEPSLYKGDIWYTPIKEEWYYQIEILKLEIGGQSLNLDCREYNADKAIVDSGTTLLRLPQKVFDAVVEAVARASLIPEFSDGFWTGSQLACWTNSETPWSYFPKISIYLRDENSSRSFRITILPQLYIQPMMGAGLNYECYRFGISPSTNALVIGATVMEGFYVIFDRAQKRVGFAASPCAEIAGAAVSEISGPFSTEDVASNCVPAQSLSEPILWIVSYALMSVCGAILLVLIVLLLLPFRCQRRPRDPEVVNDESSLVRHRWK
- procedure.details: In vitro enzymatic BACE2 FRET assay
- Assay type: biochemical
Number in µM, nothing else.

- structure.smiles: "C[C@]1(c2cc(/C=C(\\F)c3ccc(C#N)cn3)ccc2F)N=C(N)S[C@@]2(C(=O)N3CCOC[C@@H]3CO)C[C@H]21"
  tested.system: "BACE2 (Homo sapiens (Human), UniProt Q9Y5Z0)"
  IC50 (µM): 0.186

QUERY: Sample C#CCOc1cnc(/C(F)=C/c2cnc(F)c([C@@]3(C)N=C(N)S[C@@]4(C(=O)N5[C@H]6COC[C@H]5COC6)C[C@H]43)c2)cn1 — what was its IC50?
RESULT: 0.255

---

- tested.system: BACE2 (Homo sapiens (Human))
- procedure.details: In vitro enzymatic BACE2 FRET assay
- Format: biochemical
- assay.conditions: read-out: IC50 IP (μM) BACE2 Enzyme
This section presents molecules with their documented IC50 values.
Number in µM, nothing else.

Recorded results for 2 molecules are shown here.
- molecule: "C#CCOc1cnc(/C(F)=C/c2cnc(F)c([C@@]3(C)N=C(N)S[C@@]4(C(=O)N5CCOCC5)C[C@H]43)c2)cn1"
  test.value: 0.309
- molecule: "C[C@]1(c2cc(/C=C(\\F)c3ccc(C#N)cn3)cnc2F)N=C(N)S[C@@]2(C(=O)NCC(F)F)C[C@H]21"
  test.value: 0.164

QUERY: I'm curious: which IC50 was measured for CN(C)C(=O)[C@]12C[C@H]1[C@@](C)(c1cc(/C=C(\F)c3ncc(C#N)cn3)ccc1F)N=C(N)S2 tested on BACE2 (Homo sapiens (Human))?
RESULT: 0.00305

QUERY: Next: CN(C)C(=O)[C@]12C[C@H]1[C@@](C)(c1cc(/C=C(\F)c3ncc4c(n3)OCCO4)ccc1F)N=C(N)S2
RESULT: 0.076

QUERY: Next: CN(C)C(=O)[C@]12C[C@H]1[C@@](C)(c1cc(/C=C(\F)c3cnc(C#N)nc3)ccc1F)N=C(N)S2
RESULT: 0.3

QUERY: Next: C[C@]1(c2cc(/C=C(\F)c3cnc(C#N)cn3)ccc2F)N=C(N)S[C@@]2(C(=O)N3CC[C@H](F)C3)C[C@H]21
RESULT: 0.04

---

- tested.system: Cathepsin D (CatD) (Homo sapiens (Human), UniProt P07339)
- Sequence (P07339 65-412, species assumed): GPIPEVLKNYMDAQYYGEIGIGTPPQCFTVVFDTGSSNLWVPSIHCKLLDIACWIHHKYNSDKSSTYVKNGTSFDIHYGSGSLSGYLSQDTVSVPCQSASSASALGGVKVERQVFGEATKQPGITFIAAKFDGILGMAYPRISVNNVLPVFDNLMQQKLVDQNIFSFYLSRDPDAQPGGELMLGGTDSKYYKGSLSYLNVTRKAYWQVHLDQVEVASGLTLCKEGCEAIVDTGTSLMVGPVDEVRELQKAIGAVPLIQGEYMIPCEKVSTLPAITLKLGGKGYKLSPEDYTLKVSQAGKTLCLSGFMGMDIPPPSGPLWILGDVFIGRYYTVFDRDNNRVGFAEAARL
- procedure.details: CatD assay
- Format: biochemical
- assay.conditions: read-out: IC50 IP (μM) CatD
property: IC50 (µM)
Number in µM, nothing else.

Recorded results for 5 molecules are shown here.
- molecule: "C[C@]1(c2cc(/C=C(\\F)c3ccc(C#N)cn3)ccc2F)N=C(N)S[C@@]2(C(N)=O)C[C@H]21 [Example 243]"
  property: "IC50"
  units: "µM"
  test.value: 412
- molecule: "COCCOc1cnc(/C(F)=C/c2ccc(F)c([C@@]3(C)N=C(N)S[C@@]4(C(=O)N(C)C)C[C@H]43)c2)cn1 [Example 210]"
  property: "IC50"
  units: "µM"
  test.value: 159
- molecule: "CC#C/C(F)=C/c1ccc(F)c([C@@]2(C)N=C(N)S[C@@]3(C(=O)N(C)C)C[C@H]32)c1 [Example 209]"
  property: "IC50"
  units: "µM"
  test.value: 56
- molecule: "CN(C)C(=O)[C@]12C[C@H]1[C@@](C)(c1cc(/C=C(\\F)c3ccc(C#N)cn3)ccc1F)N=C(N)S2 [Example 106]"
  property: "IC50"
  units: "µM"
  test.value: 148
- molecule: "CN(C)C(=O)[C@]12C[C@H]1[C@@](C)(c1cc(/C=C(\\F)c3cnc(OCC#N)cn3)ccc1F)N=C(N)S2 [Example 158]"
  property: "IC50"
  units: "µM"
  test.value: 400

Now consider a different molecule.
QUERY: Sample C[C@]1(c2cc(/C=C(\F)c3ccc(C#N)cn3)cnc2F)N=C(N)S[C@@]2(C(=O)N3CCOCC3)C[C@H]21 [Example 183] — what was its IC50?
RESULT: 2140
